# TEST_SUMMARY: Octanol-water distribution coefficient
# Format: physicochemical
# ASSAY_CONDITIONS: 1-octanol / DI water, absorbance at 330 nm
READOUT_TYPE: LogKow
Write the value as a bare number.

MOLECULE: C[N+]1(C)Cc2c3c4c5c6c7c8c9c(c%10c8c8c(c%11c%12c(c%13c%14ccc%15c(c2C1)c4c1c%15c%14c2c%13c%11c8c7c2c61)C[N+](C)(C)C%12)C1C[N+](C)(C)CC%101)C=CC3C95.[I-].[I-].[I-] (centres unmarked) [CI3]
LogKow: −0.43
//
MOLECULE: O=C(NC(CO)CO)C1(C(=O)NC(CO)CO)c2c1c1c3ccc4c5c6c7c(c8c9c7c7c%10c%11c%12c(ccc%13c2c2c1c1c3c4c6c7c1c%10c2c%12%13)C(C=C8)C9%11)C1C5C1(C(=O)NC(CO)CO)C(=O)NC(CO)CO (centres unmarked) [NI2]
LogKow: −1.49
//
MOLECULE: C[N+]1(C)CC2c3c4c5c6c3c3c(c7ccc8c9ccc%10c%11c%12c%13c%14c(c6c6c3c7c8c(c9c%10%13)c%146)=C3C5C(C=C4)C(C=C%11)C3%12)C2C1.[I-] (centres unmarked) [CI1]
LogKow: 2.15
//
MOLECULE: C[N+]1(C)Cc2c(c3c4ccc5c6c7c8c9c%10c%11c%12c%13c(c%14c%12c%12c(c2c2c%12c%11c9c(c4c58)c32)C2C[N+](C)(C)CC%142)C=CC2C%13C=%10C7C2C=C6)C1.[I-].[I-] (centres unmarked) [CI2]
LogKow: 0.11

Here is another molecule to look at.
Suppose we examine the molecule O=C(NC(CO)CO)C1(C(=O)NC(CO)CO)C2c3c4c5c6c3c3c(c7ccc8c9ccc%10c%11ccc%12c%13c(c%14c6c6c3c7c8c3c9c%10c(c%13%11)c%14c36)C5C%12C=C4)C21 (centres unmarked) [NI1] ; what LogKow value has been reported?
−1.61
